# measurement.target: Tyrosinase (Agaricus bisporus)
# assay.name: Inhibition of mushroom tyrosinase diphenolase activity assessed as reduction in dopachrome formation using L-DOPA as substrate preincubated for 20 mins followed by substrate addition measured for 1 min
experimental.endpoint: log10 of IC50 (log10 of the value in µM)
Please keep in mind that the values are log10 of IC50 expressed in µM.

sample.smiles: O=c1cc(CSc2nncn2/N=C/c2ccc(O)cc2)occ1O
log10 of IC50: 0.93

sample.smiles: Cc1nnc(SCc2cc(=O)c(O)co2)n1NCc1ccc(O)cc1O
log10 of IC50: 0.76

get_value(item= `O=c1cc(CSc2nncn2NCc2ccccc2O)occ1O` , readout=log10 of IC50) returns 0.77

get_value(item= `O=c1cc(CSc2nnc(-c3ccccc3)n2NCc2ccc(O)cc2O)occ1O` , readout=log10 of IC50) returns 0.13

get_value(item= `O=c1cc(CSc2nnc(-c3ccc(Cl)cc3)n2NCc2ccccc2O)occ1O` , readout=log10 of IC50) returns 0.23

----------
# measurement.target: Tyrosinase (Agaricus bisporus)
# Sequence (O42713 whole entry): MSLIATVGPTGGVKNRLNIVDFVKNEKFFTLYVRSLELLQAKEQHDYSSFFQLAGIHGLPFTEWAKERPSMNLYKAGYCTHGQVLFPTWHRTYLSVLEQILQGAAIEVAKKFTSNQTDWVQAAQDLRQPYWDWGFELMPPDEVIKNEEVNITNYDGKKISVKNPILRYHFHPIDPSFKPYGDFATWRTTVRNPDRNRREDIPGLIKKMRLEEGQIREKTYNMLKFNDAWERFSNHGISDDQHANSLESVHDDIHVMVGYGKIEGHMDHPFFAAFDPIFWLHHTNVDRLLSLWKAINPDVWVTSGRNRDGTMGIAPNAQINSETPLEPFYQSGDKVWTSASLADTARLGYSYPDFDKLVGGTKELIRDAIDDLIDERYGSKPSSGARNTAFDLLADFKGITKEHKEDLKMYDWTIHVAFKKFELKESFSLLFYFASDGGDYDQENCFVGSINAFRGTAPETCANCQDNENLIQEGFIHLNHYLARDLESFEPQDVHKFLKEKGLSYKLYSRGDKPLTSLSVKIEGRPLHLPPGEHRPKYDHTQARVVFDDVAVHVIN
experimental.endpoint: pIC50
Scale for pIC50: -log10 of concentration given in mol/L; no unit attached.

Past entries and their recorded results:
sample.smiles: O=c1cc(CSc2nncn2/N=C/c2ccc(O)cc2O)occ1O
measurement.target: Tyrosinase (Agaricus bisporus)
value.measured: 5.02

sample.smiles: COc1cc(/C=N/n2cnnc2SCc2cc(=O)c(O)co2)ccc1O
measurement.target: Tyrosinase (Agaricus bisporus)
value.measured: 4.76

sample.smiles: O=c1cc(CSc2nnc(-c3ccccc3Cl)n2/N=C/c2ccc(O)c(O)c2)occ1O
measurement.target: Tyrosinase (Agaricus bisporus)
value.measured: 5.28

get_value(item= `Cc1nnc(SCc2cc(=O)c(O)co2)n1NCc1cccc(O)c1` , readout=pIC50) returns 4.90

get_value(item= `O=c1cc(CSc2nnc(-c3ccccc3)n2NCc2ccccc2O)occ1O` , readout=pIC50) returns 5.82

get_value(item= `CCc1nnc(SCc2cc(=O)c(O)co2)n1NCc1ccccc1O` , readout=pIC50) returns 5.12
